Tested on: IL-6, IP-10
experiment: Cytokine induction (IL-6, IP-10) in mice 6 hours after intravenous administration
Format: in vivo
Set-up: unit not given here
experimentalParameters: intravenous 0.5 mpk
In plain terms, low Cytokine induction, IL-6, meaning strictly below 80, gives rule met, and everything else gives rule not met.

compound: CCCCCCCCCOC(=O)CCCCCCCN(CCCCCCCC(=O)OC(CCCCCCCC)CCCCCCCC)C1CCCCC1O (stereo not drawn) [Compound 22]
labelValue: rule not met
--
compound: CCCCCCCCCCCCN(CCO)CCCCCCCCCCCC(=O)OC [Compound 137]
labelValue: rule not met
--
compound: CCCCCCCC/C=C\COC(=O)CCCCCN(CCO)CCCCCC(=O)OC/C=C\CCCCCCCC [Compound 140]
labelValue: rule not met
--
compound: CCCCCC/C=C\COC(=O)CCCCCCCN(CCO)CCCCCCCC(=O)OC(CCCCCCCC)CCCCCCCC [Compound 24]
labelValue: rule not met
--
compound: CCCCC/C=C\C/C=C\CCCCCCCCN(CCO)CCCCCCCC(=O)OCCCCCCCCC [Compound 136]
labelValue: rule met
--
compound: CCCCCCCCCOC(=O)CCCCCCCN(CCO)CCCCCCCCCC(=O)OC(CCCCCCCC)CCCCCCCC [Compound 23]
labelValue: rule not met
--
compound: CCCCCCCCCCCOC(=O)CCCCCN(CCO)CCCCCC(=O)OCCCCCCCCCCC [Compound 141]
labelValue: rule not met
--
compound: CCCCCCCCC(CCCCCCCC)OC(=O)CCCCCCCN(CCO)CCCCCCCC(=O)OC(CCCCCCCC)CCCCCCCC [compound 29]
labelValue: rule met
--
compound: CCCCCCCCCCCCCCN(CCO)CCCCCCCC(=O)OC(CCCCCCCC)CCCCCCCC [Compound 2]
labelValue: rule met
--
compound: CCCCCCCCCOC(=O)CCCCCCCN(CCO)CCCCCCCC(=O)N(CCCCCCCC)CCCCCCCC [Compound 144]
labelValue: rule not met
--
compound: CCCCCCCCC(CCCCCCCC)OC(=O)CCCCCCCN(CCO)CCCCCC [Compound 5]
labelValue: rule not met
--
compound: CCCCCC/C=C\COC(=O)CCCCCCCN(CCO)CCCCCCCC(=O)OC/C=C\CCCCCC [Compound 139]
labelValue: rule met
--
compound: CCCCCCCCC(CCCCCCCC)OC(=O)CCCCCCCN(CCO)CCCCCCCC(=O)OCC1CC1CCCCCC (stereo not drawn) [Compound 28]
labelValue: rule met
--
compound: CCCCCCCCCOC(=O)CCCCCCCN(CCCCCCCC(=O)OC(CCCCCCCC)CCCCCCCC)CCCOC [Compound 16]
labelValue: rule met
